Provenance of the data: patent US11505548B2

# System: microfilariae of Dirofilaria immitis
# assay: Dirofilaria immitis, Microfilaria (DiMF) Assay
# Type: cell-based
# condition description: read-out: D. immitis activity level (IC50 or MED)
# Protocol: Heartworm Screen Dirofilaria immitis (D. immitis) Dirofilaria immitis, Microfilaria (DiMF) Assay. Compounds were dissolved and serially diluted in DMSO. Aliquots were spotted to the empty wells of assay plates. Media and microfilariae of Dirofilaria immitis were added to each well to dilute the test compounds to the desired concentrations. […] Microfilariae in each well were assessed subjectively for survival or paralysis, and results were reported as Minimum Effective Dose (MED). […]
endpoint name: IC50

> print(dat)
                                 item.smiles  endpoint.name  recorded.value
 1  COc1cccnc1Nc1nc(-c2ccc(OC3CC(F)(F)C3)cn2)ns1           IC50  500 to 5000 nM
 2  Cc1cc(C#N)cnc1Nc1nc(-c2ccc(OC(C)C)cn2)ns1           IC50   200 to 500 nM
 3  CC(=O)Nc1cccnc1Nc1nc(-c2ccc(OC(C)C)cn2)ns1           IC50  500 to 5000 nM
 4   Cc1cccnc1Nc1nc(-c2ccc(OC(F)(F)F)cn2)ns1           IC50  500 to 5000 nM
 5      Cc1cccnc1Nc1nc(-c2ccc(OC3CC3)cn2)ns1           IC50   200 to 500 nM
 6  CC(C)Oc1cnc(-c2nsc(Nc3ncccc3C(=O)N(C)C3CC3)n2)cc1C(F)(F)F           IC50        < 200 nM
 7    COc1ccnc(-c2nsc(Nc3ccc(C(C)C)cn3)n2)c1           IC50        < 200 nM
 8  CC(C)Oc1cnc(-c2nsc(Nc3ncccc3N3CCCC3=O)n2)cc1C(F)(F)F           IC50  500 to 5000 nM
 9  COc1ccnc(-c2nsc(Nc3ccc(C(F)(F)F)cn3)n2)c1           IC50        < 200 nM
10  COc1ccnc(-c2nsc(Nc3cc(C(F)(F)F)c(C(C)C)cn3)n2)c1           IC50        < 200 nM
11  COc1cccnc1Nc1nc(-c2cc(C(F)(F)F)c(OC(C)C)cn2)ns1           IC50  500 to 5000 nM
12  Cc1cnc(Nc2nc(-c3cc(C(=O)N(C)C)c(OC(C)C)cn3)ns2)c(C(F)(F)F)c1           IC50  500 to 5000 nM
13  CC(=O)N(C)c1cccnc1Nc1nc(-c2cc(C(C)C)ccn2)ns1           IC50   200 to 500 nM

----------
Listed here: items and their measured pIC50.
# Tested on: microfilariae of Dirofilaria immitis
# assay: Dirofilaria immitis, Microfilaria (DiMF) Assay
# Type: cell-based
# condition description: read-out: D. immitis activity level (IC50 or MED)
pIC50: −log10 of the molar value.
endpoint name: pIC50

> print(dat)
                                   compound                       measured.target  endpoint.name  recorded.value
1  CN1CCC(Oc2ccnc(-c3nsc(Nc4ncccc4C(F)(F)F)n3)c2)CC1 [Compound 62]  microfilariae of Dirofilaria immitis          pIC50    5.30 to 6.30
2  CC(C)c1cnc(Nc2nc(-c3ncccc3OC3CC3)ns2)cc1C(F)(F)F [Compound 97]  microfilariae of Dirofilaria immitis          pIC50          > 6.70
3  CC(C)Oc1ccc(-c2nsc(Nc3ncccc3N(C)C)n2)nn1 [Compound 155]  microfilariae of Dirofilaria immitis          pIC50    5.30 to 6.30
4  CC(C)Oc1cnc(-c2nsc(Nc3ncccc3C(C)C)n2)cc1C(N)=O [Compound 198]  microfilariae of Dirofilaria immitis          pIC50    5.30 to 6.30
5  Cc1cnc(Nc2nc(-c3cc(C(N)=O)c(OC(C)C)cn3)ns2)c(C(F)(F)F)c1 [Compound 252]  microfilariae of Dirofilaria immitis          pIC50    5.30 to 6.30
6  c1ccc(-c2ccnc(Nc3nc(-c4ccccn4)no3)c2)cc1 [Compound 246]  microfilariae of Dirofilaria immitis          pIC50    5.30 to 6.30
7  COc1cccnc1Nc1nc(-c2ccc(OC3CC3)cn2)ns1 [Compound 80]  microfilariae of Dirofilaria immitis          pIC50    5.30 to 6.30
8  CC(=O)N(C)c1cccnc1Nc1nc(-c2cc(C(F)(F)F)c(OC(C)C)cn2)ns1 [Compound 187]  microfilariae of Dirofilaria immitis          pIC50    6.30 to 6.70
9  COC(=O)c1cc(-c2nsc(Nc3ncccc3C)n2)ncc1OC(C)C [Compound 196]  microfilariae of Dirofilaria immitis          pIC50    6.30 to 6.70
